This collection of values is drawn from patent US8492375B2.

target: histamine H3 receptor (Homo sapiens); assay: Histamine H3 functional antagonist assay ([35S]GTPγS binding, SPA, membranes of CHO K1 cells); conditions: pKb, antagonism of 0.3 μM histamine, membranes with human H3 receptor
Sequence (Q9Y5N1 whole entry): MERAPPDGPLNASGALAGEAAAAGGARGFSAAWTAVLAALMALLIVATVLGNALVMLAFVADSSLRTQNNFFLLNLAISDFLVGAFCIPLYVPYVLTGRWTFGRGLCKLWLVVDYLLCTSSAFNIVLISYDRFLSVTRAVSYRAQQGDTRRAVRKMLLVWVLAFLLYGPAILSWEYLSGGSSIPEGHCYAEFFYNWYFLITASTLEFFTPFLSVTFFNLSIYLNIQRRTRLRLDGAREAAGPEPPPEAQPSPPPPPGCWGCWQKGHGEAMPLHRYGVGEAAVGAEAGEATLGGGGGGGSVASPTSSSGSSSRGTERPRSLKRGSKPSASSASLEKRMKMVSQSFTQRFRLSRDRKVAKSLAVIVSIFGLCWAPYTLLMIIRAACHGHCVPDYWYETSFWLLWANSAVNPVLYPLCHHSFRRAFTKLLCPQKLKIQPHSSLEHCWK
Counter-ions that a name gives are not always drawn.
Listing of recorded Kb by entry.

Known results for compounds:
O=C(c1ccc(-c2nc(-c3ccc(F)cc3)cs2)cc1)N1CCCN(C2CCC2)CC1 [Example 8, hydrochloride] = ≤ 1 nM
O=C(c1ccc(-c2ncco2)cc1)N1CCCN(C2CCC2)CC1 [Example 56, hydrochloride] = ≤ 1 nM
N#Cc1ccc(-c2ccc(C(=O)N3CCCN(C4CCC4)CC3)cc2)nc1 [Example 12, hydrochloride] = < 0.316 nM

# Kb of O=C(c1ccc(N2CCS(=O)(=O)CC2)cc1)N1CCCN(C2CCC2)CC1 [Example 9, hydrochloride] = ≤ 1 nM
